Recorded Macrophage MFI by entry
- assayed target: T1, human CD33 (human, UniProt P20138 18-364)
- T1 construct: CD33 on human primary dendritic cells, macrophages, monocytes and T cells and on CHO cells expressing recombinant human CD33; also called Siglec-3; hCD33
- T1 sequence (P20138 18-364): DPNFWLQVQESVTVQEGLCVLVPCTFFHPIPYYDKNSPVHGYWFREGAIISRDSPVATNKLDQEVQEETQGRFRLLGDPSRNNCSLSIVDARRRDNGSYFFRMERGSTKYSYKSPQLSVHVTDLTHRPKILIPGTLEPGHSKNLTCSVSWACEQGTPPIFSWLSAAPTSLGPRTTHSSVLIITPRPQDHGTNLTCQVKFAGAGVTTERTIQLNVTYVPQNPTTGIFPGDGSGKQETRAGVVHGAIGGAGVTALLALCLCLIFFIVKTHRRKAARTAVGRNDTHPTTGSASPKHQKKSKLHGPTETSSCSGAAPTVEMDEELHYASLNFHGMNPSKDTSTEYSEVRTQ
- protocol description: flow cytometry, human primary macrophages;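 further: binding of CD33 antibodies at 10 µg/ml to human primary macrophages, 1 h on ice, detected with PE-labelled secondary antibody by flow cytometry, reported as MFI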
Please give the numeric answer without any surrounding text.

binder | Macrophage MFI
C-19 (antibody, V domains shown, human IgG1) VH: QLQLQESGPGLVKPSETLSLTCTVSGGSISSSSYAWGWIRQPPGKGLEWIGSIYYSGSTYYNPSLKSRVTISVDTSKNQFSLKLSSVTAADTAVYYCARVGYTRPYGMDVWGQGTTVTVSS VL: DIQMTQSPSSVSASVGDRVTITCRASQGISSWLAWYQQKPGKAPKLLIYAASSLQSGVPSRFSGSGSGTDFTLTISSLQPEDFATYYCQQINAHPTFGGGTKVEIK | 887
C-68 (antibody, V domains shown, human IgG1) VH: QVQLQESGPGLVKPSQTLSLTCTVSGGSISSGGYYWSWIRQHPGKGLEWIGNIYYSGSTYYNPSLKSRVTISVDTSKNQFSLKLSSVTAADTAVYYCARDLPNSGSPGSDYFDYWGQGTLVTVSS VL: EIVLTQSPGTLSLSPGERATLSCRASQSVSSSYLAWYQQKPGQAPRLLIYGASSRATGIPDRFSGSGSGTDFTLTISRLEPEDFAVYYCQQYDNYPPTFGGGTKVEIK | 752

## Task Give the measured Macrophage MFI of C-72 (antibody, V domains shown, human IgG1) VH: QVQLVESGGGVVQPGRSLRLSCAASGFTFSSYGMHWVRQAPGKGLEWVAVIWYDGSNKYYADSVKGRFTISRDNSKNTLYLQMNSLRAEDTAVYYCAKEGGTYSDDFDLWGGGTLVTVSS VL: DIQMTQSPSSVSASVGDRVTITCRASQGISSWLAWYQQKPGKAPKLLIYAASSLQSGVPSRFSGSGSGTDFTLTISSLQPEDFATYYCQQASSFPLTFGGGTKVEIK .
## Result 657

## Task Further, for C-73 (antibody, V domains shown, human IgG1) VH: QVQLVESGGGVVQPGRSLRLSCAASGFTFSSYGMHWVRQAPGKGLEWVAVIWYDGSNKYYADSVKGRFTISRDNSKNTLYLQMNSLRAEDTAVYYCARGTNAYGTPRDFDLWGRGTLVTVSS VL: DIQMTQSPSSLSASVGDRVTITCRASQSISSYLNWYQQKPGKAPKLLIYAASSLQSGVPSRFSGSGSGTDFTLTISSLQPEDFATYYCQQLSDTPITFGGGTKVEIK ?
## Result 573
